Hi there, I'd appreciate the recorded Population Healthy Nuclei (%) for every entry that follows.
tested on: U2OS; assay: Multiplex assay against U2OS; type: toxicity, cell-based; settings: human, 24 h, 1 µM, compound concentration 1 uM, replicate 2
Numeric only. Scale: %

Report Population Healthy Nuclei (%) for Cl.Clc1ccc2nsnc2c1NC1=NCCN1 [TIZANIDINE HYDROCHLORIDE] tested on U2OS.
73

Report Population Healthy Nuclei (%) for COc1ccc2c(c1)C(C(=O)N(Cc1ccc(N(C)C)cc1)c1ccc(C(C)C)cc1)CCC2.Cl (stereo not drawn) tested on U2OS.
73

Report Population Healthy Nuclei (%) for Cc1ccc(C(C)(O)c2nc3ccccc3s2)c(C)c1 (stereo not drawn) tested on U2OS.
80

Report Population Healthy Nuclei (%) for `Cc1ccc(-c2ccc(F)cc2COc2ccc(CCC(=O)O)cc2)cc1` tested on U2OS.
70

Report Population Healthy Nuclei (%) for `Oc1c(CN2CCN(c3ccccn3)CC2)cc(Cl)c2cccnc12` tested on U2OS.
87

Report Population Healthy Nuclei (%) for CCCN1CCC[C@@H]2Cc3n[nH]cc3C[C@H]21.Cl [QUINPIROLE HYDROCHLORIDE] tested on U2OS.
68

Report Population Healthy Nuclei (%) for `CCCn1c(=O)c2[nH]c(C3CCCC3)nc2n(CCC)c1=O` tested on U2OS.
74

Report Population Healthy Nuclei (%) for O=S(=O)(c1ccccc1)c1cnc2c(N3CCNCC3)cccc2c1 [INTEPIRDINE] tested on U2OS.
73

----------
tested on: Fibroblast; experiment: Multiplex assay against human fibroblast; type: toxicity, cell-based; conditions: 12 h, 1 µM, compound concentration 1 uM, replicate 1
outcome-measure: Population Apoptotic (%)
Numeric only. Scale: %

What value of Population Apoptotic (%) has been recorded for this entry: Cc1ccc(F)cc1C(=O)Nc1ccc(C(=O)N2Cc3cccn3Cc3ccccc32)c(Cl)c1 [LIXIVAPTAN]
40

What value of Population Apoptotic (%) has been recorded for this entry: Cl.Clc1ccc2nsnc2c1NC1=NCCN1 [TIZANIDINE HYDROCHLORIDE]
38

What value of Population Apoptotic (%) has been recorded for this entry: CSc1ccccc1N1CCN(CCCCCC(=O)NC2CCCc3ccccc32)CC1.Cl (stereo not given)
37

What value of Population Apoptotic (%) has been recorded for this entry: `COc1c(C)cc(NC(=O)c2nn(Cc3ccc(F)cc3)c3c2CN(C(=O)c2ccc[nH]2)C[C@]3(C)C(N)=O)cc1C`
42

What value of Population Apoptotic (%) has been recorded for this entry: O=C(NCC(=O)N1CC[C@H](N[C@H]2CC[C@@](O)(c3ccc(-c4ncccn4)cn3)CC2)C1)c1cccc(C(F)(F)F)c1 [PF-4136309]
53

----------
Hi there, I'd appreciate the recorded Population Pyknosed Nuclei (%) for every entry that follows.
tested on: HEK-293T; test: Multiplex assay against HEK293T; type: toxicity, cell-based; details: human, 12 h, 10 µM, compound concentration 10 uM, replicate 2
Numeric only. Scale: %

Report Population Pyknosed Nuclei (%) for `O=C(O)c1cc2ccccc2c(Cc2c(O)c(C(=O)O)cc3ccccc23)c1O` tested on HEK-293T.
13

Report Population Pyknosed Nuclei (%) for `Cc1ccc(F)cc1C(=O)Nc1ccc(C(=O)N2Cc3cccn3Cc3ccccc32)c(Cl)c1` tested on HEK-293T.
25

Report Population Pyknosed Nuclei (%) for `CC(C)(C)c1ccc(S(=O)(=O)Nc2ccc(Cl)cc2C(=O)c2cc[n+]([O-])cc2)cc1` tested on HEK-293T.
13

Report Population Pyknosed Nuclei (%) for `CC[C@H]1OC(=O)[C@H](C)[C@@H](O[C@H]2C[C@@](C)(OC)[C@@H](O)[C@H](C)O2)[C@H](C)[C@@H](O[C@@H]2O[C@H](C)C[C@H](N(C)C)[C@H]2O)[C@@]2(C)CC(C)=C(O2)[C@H](C)[C@@H](O)[C@]1(C)O` tested on HEK-293T.
16

Report Population Pyknosed Nuclei (%) for CCCN1CCC[C@@H]2Cc3n[nH]cc3C[C@H]21.Cl [QUINPIROLE HYDROCHLORIDE] tested on HEK-293T.
16

----------
system: HEK-293T; assay: Multiplex assay against HEK293T; assay type: toxicity, cell-based; details: human, 12 h, 10 µM, compound concentration 10 uM, replicate 2
outcome-measure: Population Healthy Nuclei (%)
Numeric only. Scale: %

What value of Population Healthy Nuclei (%) has been recorded for this entry: `Cc1ccc(F)cc1C(=O)Nc1ccc(C(=O)N2Cc3cccn3Cc3ccccc32)c(Cl)c1`
67

What value of Population Healthy Nuclei (%) has been recorded for this entry: `CCCC(CCC)C(=O)O`
81

What value of Population Healthy Nuclei (%) has been recorded for this entry: CNC[C@H](O)c1ccc(O)c(O)c1 [EPINEPHRINE]
61

What value of Population Healthy Nuclei (%) has been recorded for this entry: `COc1ccccc1N1CCN(CCCCNC(=O)c2ccc3ccccc3c2)CC1.Cl`
75

What value of Population Healthy Nuclei (%) has been recorded for this entry: `C[C@H](NC(=O)c1c(C(F)F)nn(C)c1Oc1cccc(C(F)(F)F)c1)c1ccc(C(=O)O)cc1`
77

What value of Population Healthy Nuclei (%) has been recorded for this entry: `O=C(O)Cc1ccccc1Nc1c(Cl)cccc1Cl`
75

What value of Population Healthy Nuclei (%) has been recorded for this entry: `N#Cc1c(N)nc(SCc2csc(-c3ccc(Cl)cc3)n2)c(C#N)c1-c1ccc(OCCO)cc1`
73

What value of Population Healthy Nuclei (%) has been recorded for this entry: `CN(C)CCCc1cc(C(=O)Nc2ccc(-c3ccncc3)cc2)ccc1O.Cl.Cl`
77

What value of Population Healthy Nuclei (%) has been recorded for this entry: `CC(C)(C)c1ccc(S(=O)(=O)Nc2ccc(Cl)cc2C(=O)c2cc[n+]([O-])cc2)cc1`
82

What value of Population Healthy Nuclei (%) has been recorded for this entry: Cc1ccccc1C(=O)Nc1ccc(C(=O)N2CCCC(N(C)C)c3ccccc32)cc1.Cl (stereo not given)
72

What value of Population Healthy Nuclei (%) has been recorded for this entry: `Cc1ccc(/C(=C\CN2CCCC2)c2ccccn2)cc1`
77

What value of Population Healthy Nuclei (%) has been recorded for this entry: `CC(=O)NCCc1c(Cc2ccccc2)[nH]c2ccccc12`
80

What value of Population Healthy Nuclei (%) has been recorded for this entry: Cl.Clc1ccc2nsnc2c1NC1=NCCN1 [TIZANIDINE HYDROCHLORIDE]
79

What value of Population Healthy Nuclei (%) has been recorded for this entry: `O=C(O)c1cc2ccccc2c(Cc2c(O)c(C(=O)O)cc3ccccc23)c1O`
81

What value of Population Healthy Nuclei (%) has been recorded for this entry: `c1cc(OCCCN2CCCCC2)ccc1CN1CCCCC1`
67

----------
Hi there, I'd appreciate the recorded Population Fragmented Nuclei (%) for every entry that follows.
system: HEK-293T; test: Multiplex assay against HEK293T; type: toxicity, cell-based; conditions: human, 48 h, 1 µM, compound concentration 1 uM, replicate 2
Numeric only. Scale: %

What value of Population Fragmented Nuclei (%) has been recorded for this entry: `CCCn1c(=O)c2[nH]c(C3CCCC3)nc2n(CCC)c1=O`
14

What value of Population Fragmented Nuclei (%) has been recorded for this entry: `N#Cc1c(N)nc(SCc2csc(-c3ccc(Cl)cc3)n2)c(C#N)c1-c1ccc(OCCO)cc1`
11

What value of Population Fragmented Nuclei (%) has been recorded for this entry: `CC(=O)NCCc1c(Cc2ccccc2)[nH]c2ccccc12`
12

What value of Population Fragmented Nuclei (%) has been recorded for this entry: `CC1(COc2ccc3c(c2)ncn3-c2ccc3cccc(N4CCC(N)CC4)c3n2)COC1`
23

What value of Population Fragmented Nuclei (%) has been recorded for this entry: `Cc1nc2ccc(Oc3ccc(F)cc3)cc2c(=O)n1C[C@H]1CCCN(C(C)C)C1.Cl`
13

What value of Population Fragmented Nuclei (%) has been recorded for this entry: CCCN1CCC[C@@H]2Cc3n[nH]cc3C[C@H]21.Cl [QUINPIROLE HYDROCHLORIDE]
11

----------
tested on: HEK-293T; experiment: Multiplex assay against HEK293T; format: toxicity, cell-based; settings: human, 12 h, 1 µM, compound concentration 1 uM, replicate 1
outcome-measure: Population Mitotic Cells (%)

What value of Population Mitotic Cells (%) has been recorded for this entry: CSc1ccccc1N1CCN(CCCCCC(=O)NC2CCCc3ccccc32)CC1.Cl (configuration not stated)
54%

What value of Population Mitotic Cells (%) has been recorded for this entry: `CC(C)(C)c1ccc(S(=O)(=O)Nc2ccc(Cl)cc2C(=O)c2cc[n+]([O-])cc2)cc1`
68%

What value of Population Mitotic Cells (%) has been recorded for this entry: `C[C@@H]1C[C@H]2[C@@H]3CCC4=CC(=O)C=C[C@]4(C)[C@@]3(F)[C@@H](O)C[C@]2(C)[C@@]1(O)C(=O)CO`
62%

What value of Population Mitotic Cells (%) has been recorded for this entry: `O=C1COc2nccc(-c3ccccc3F)c2CN1Cc1cc(C(F)(F)F)cc(C(F)(F)F)c1`
68%

What value of Population Mitotic Cells (%) has been recorded for this entry: `CN1CCN(c2nc3cc(C(F)(F)F)ccc3n3cccc23)CC1.O=C(O)/C=C\C(=O)O.O=C(O)/C=C\C(=O)O`
62%

What value of Population Mitotic Cells (%) has been recorded for this entry: `COc1cc(NC(=O)CCN2CCC(OC(=O)Nc3ccccc3-c3ccccc3)CC2)c(Cl)cc1CNC[C@H](O)c1ccc(O)c2[nH]c(=O)ccc12`
57%

What value of Population Mitotic Cells (%) has been recorded for this entry: `Cc1ccc(-c2ccc(F)cc2COc2ccc(CCC(=O)O)cc2)cc1`
57%
